Reference for the values: PubChem BioAssay AID1963829

Test system: 935938-334-R-J1-PDC complex spheroid viability
PROTOCOL TEXT: Anticancer human tumor 935938-334-R-J1-PDC patient-derived small intestine adenocarcinoma cell line growth inhibition [POLQ]
PARTICULARS: second compound 10 µM; first compound 1 µM; hits give low values
Entries and their viability, T/C

| COMPOUND | viability, T/C / % |
| --- | --- |
| C=CC(=O)N1CCN(c2nc(=O)n(-c3c(C)ccnc3C(C)C)c3nc(-c4c(O)cccc4F)c(F)cc23)C(C)C1 (stereo not given) + Cc1cccc(N(C)C(=O)C2C(O)CCN2c2nc(C)cc(C(F)(F)F)c2C#N)c1 | 94.9 |
| CC1COCCN1c1cc(C2(O)CC3CCC(C2)O3)c2cnn(-c3ccn[nH]3)c2n1 (stereo not given) + Cc1cccc(N(C)C(=O)C2C(O)CCN2c2nc(C)cc(C(F)(F)F)c2C#N)c1 | 23.2 |
| C=CC(=O)N1CCN(c2nc(=O)n(-c3c(C)ccnc3C(C)C)c3nc(-c4c(O)cccc4F)c(F)cc23)C(C)C1 (stereo not given) + Nc1ccc(C#CCN(C(=O)Cc2ncc(C(F)(F)F)cc2C(F)(F)F)c2ccc(F)cc2)nn1 | 89.3 |
| COc1cccc2c1C(=O)c1c(O)c3c(c(O)c1C2=O)CC(O)(C(=O)CO)CC3OC1CC(N)C(O)C(C)O1 (stereo not given) + Cc1cccc(N(C)C(=O)C2C(O)CCN2c2nc(C)cc(C(F)(F)F)c2C#N)c1 | 16.8 |
| COc1ccc([C@@H](O)c2cc(-c3ncnc4cc(N5CCOCC5)ccc34)c(F)cc2Cl)nn1 + COC1C(OC(N)=O)C(O)C(Oc2ccc3c(O)c(NC(=O)c4ccc(O)c(CC=C(C)C)c4)c(=O)oc3c2C)OC1(C)C | 70.4 |

---

Test system: 935938-334-R-J1-PDC complex spheroid viability
PROTOCOL TEXT: Anticancer human tumor 935938-334-R-J1-PDC cell line growth inhibition [POLQ];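 also: spheroids exposed to drugs for seven days before viability read; 100% = DMSO vehicle control wells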
PARTICULARS: second compound 1 µM; first compound 3.16 µM; hits give low values
Description: Multicellular complex tumor spheroid response to Polymerase (POL) inhibitors (novobiocin, ART-558, RP6685) in combination with a variety of drugs and investigational agents in selected tumor cell lines The POL inhibitors (novobiocin, ART-558, and RP6685) were evaluated both individually and in combination with standard of care and investigational anticancer small molecules within a complex spheroid model of solid tumors. . […]
// bucketize viability, T/C: b0 = under 40%, b1 = from 40% up to 70%, b2 = 70% and over

| COMPOUND | QUALITATIVE LABEL |
| --- | --- |
| CCCS(=O)(=O)Nc1ccc(F)c(C(=O)c2c[nH]c3ncc(-c4ccc(Cl)cc4)cc23)c1F + COC1C(OC(N)=O)C(O)C(Oc2ccc3c(O)c(NC(=O)c4ccc(O)c(CC=C(C)C)c4)c(=O)oc3c2C)OC1(C)C | b2 |
| COc1ccc([C@@H](O)c2cc(-c3ncnc4cc(N5CCOCC5)ccc34)c(F)cc2Cl)nn1 + COC1C(OC(N)=O)C(O)C(Oc2ccc3c(O)c(NC(=O)c4ccc(O)c(CC=C(C)C)c4)c(=O)oc3c2C)OC1(C)C | b1 |
| CCCS(=O)(=O)Nc1ccc(F)c(C(=O)c2c[nH]c3ncc(-c4ccc(Cl)cc4)cc23)c1F + Nc1ccc(C#CCN(C(=O)Cc2ncc(C(F)(F)F)cc2C(F)(F)F)c2ccc(F)cc2)nn1 | b2 |
| COc1cc2cc(C(=O)CCC(=O)O)sc2cc1OC + Cc1cccc(N(C)C(=O)C2C(O)CCN2c2nc(C)cc(C(F)(F)F)c2C#N)c1 | b2 |
| COc1cccc2c1C(=O)c1c(O)c3c(c(O)c1C2=O)CC(O)(C(=O)CO)CC3OC1CC(N)C(O)C(C)O1 (stereo unspecified) + Nc1ccc(C#CCN(C(=O)Cc2ncc(C(F)(F)F)cc2C(F)(F)F)c2ccc(F)cc2)nn1 | b0 |
| Nc1ccn(C2OC(CO)C(O)C2(F)F)c(=O)n1 (stereo unspecified) + Nc1ccc(C#CCN(C(=O)Cc2ncc(C(F)(F)F)cc2C(F)(F)F)c2ccc(F)cc2)nn1 | b0 |
| C#Cc1c(F)ccc2cc(O)cc(-c3ncc4c(N5CC6CCC(C5)N6)nc(OCC56CCCN5CC(F)C6)nc4c3F)c12 (stereo unspecified) + Cc1cccc(N(C)C(=O)C2C(O)CCN2c2nc(C)cc(C(F)(F)F)c2C#N)c1 | b0 |
| O=c1[nH]cc(F)c(=O)[nH]1 + Cc1cccc(N(C)C(=O)C2C(O)CCN2c2nc(C)cc(C(F)(F)F)c2C#N)c1 | b2 |
| CC1COCCN1c1cc(-c2ccnn2C)c2ccnc(-c3ccn[nH]3)c2n1 (stereo unspecified) + Nc1ccc(C#CCN(C(=O)Cc2ncc(C(F)(F)F)cc2C(F)(F)F)c2ccc(F)cc2)nn1 | b0 |
| O=C(Nc1ccc(O)c(NS(=O)(=O)c2ccc(F)cc2)c1)c1ccc(-c2ccccc2)cc1 + COC1C(OC(N)=O)C(O)C(Oc2ccc3c(O)c(NC(=O)c4ccc(O)c(CC=C(C)C)c4)c(=O)oc3c2C)OC1(C)C | b2 |
| O=C(Nc1ccc(O)c(NS(=O)(=O)c2ccc(F)cc2)c1)c1ccc(-c2ccccc2)cc1 + Nc1ccc(C#CCN(C(=O)Cc2ncc(C(F)(F)F)cc2C(F)(F)F)c2ccc(F)cc2)nn1 | b2 |
| CCc1cc2c(N3CCc4c(cc(Cn5ccnc5)cc4-c4cn(C)nc4C(F)(F)F)C3=O)cc(C)nc2c(OC)n1 + COC1C(OC(N)=O)C(O)C(Oc2ccc3c(O)c(NC(=O)c4ccc(O)c(CC=C(C)C)c4)c(=O)oc3c2C)OC1(C)C | b2 |
| O=C(c1cc(Cc2n[nH]c(=O)c3ccccc23)ccc1F)N1CCN(C(=O)C2CC2)CC1 + COC1C(OC(N)=O)C(O)C(Oc2ccc3c(O)c(NC(=O)c4ccc(O)c(CC=C(C)C)c4)c(=O)oc3c2C)OC1(C)C | b2 |
| CCc1cc2c(N3CCc4c(cc(Cn5ccnc5)cc4-c4cn(C)nc4C(F)(F)F)C3=O)cc(C)nc2c(OC)n1 + Cc1cccc(N(C)C(=O)C2C(O)CCN2c2nc(C)cc(C(F)(F)F)c2C#N)c1 | b1 |
| COc1cccc2c1C(=O)c1c(O)c3c(c(O)c1C2=O)CC(O)(C(=O)CO)CC3OC1CC(N)C(O)C(C)O1 (stereo unspecified) + Cc1cccc(N(C)C(=O)C2C(O)CCN2c2nc(C)cc(C(F)(F)F)c2C#N)c1 | b0 |
| COc1ccc([C@@H](O)c2cc(-c3ncnc4cc(N5CCOCC5)ccc34)c(F)cc2Cl)nn1 + Cc1cccc(N(C)C(=O)C2C(O)CCN2c2nc(C)cc(C(F)(F)F)c2C#N)c1 | b2 |
| O=c1[nH]cc(F)c(=O)[nH]1 + COC1C(OC(N)=O)C(O)C(Oc2ccc3c(O)c(NC(=O)c4ccc(O)c(CC=C(C)C)c4)c(=O)oc3c2C)OC1(C)C | b1 |
| COc1cc(C2c3cc4c(cc3C(OC3OC5COC(C)OC5C(O)C3O)C3COC(=O)C23)OCO4)cc(OC)c1O (stereo unspecified) + Cc1cccc(N(C)C(=O)C2C(O)CCN2c2nc(C)cc(C(F)(F)F)c2C#N)c1 | b0 |
| CC1COCCN1c1cc(C2(O)CC3CCC(C2)O3)c2cnn(-c3ccn[nH]3)c2n1 (stereo unspecified) + Cc1cccc(N(C)C(=O)C2C(O)CCN2c2nc(C)cc(C(F)(F)F)c2C#N)c1 | b0 |
| C=CC(=O)N1CCN(c2nc(=O)n(-c3c(C)ccnc3C(C)C)c3nc(-c4c(O)cccc4F)c(F)cc23)C(C)C1 (stereo unspecified) + Nc1ccc(C#CCN(C(=O)Cc2ncc(C(F)(F)F)cc2C(F)(F)F)c2ccc(F)cc2)nn1 | b2 |
| CCc1cc2c(N3CCc4c(cc(Cn5ccnc5)cc4-c4cn(C)nc4C(F)(F)F)C3=O)cc(C)nc2c(OC)n1 + Nc1ccc(C#CCN(C(=O)Cc2ncc(C(F)(F)F)cc2C(F)(F)F)c2ccc(F)cc2)nn1 | b1 |
